- TEST: Pharmacokinetic study in rats
- Type: in vivo
- SETTINGS: rat, plasma; Sprague-Dawley rats, intravenous, 1 mg/kg, solution
ATTRIBUTE_MEASURED: half-life (min)
Provide only the numeric value, understood in min.

[ask] So what's the measured half-life for this one? [2H]C([2H])([2H])NC(=O)c1cnc(NC(=O)C2CC2)cc1Nc1cnn2ccc([C@H](O)C(F)(F)F)c(OC)c12
[reply] 50.4

###

- TARGET_OR_TEST_SYSTEM: TYK2-JH2 domain (Homo sapiens)
- Construct: JAK1-JH2 domain or TYK2-JH2 domain enzyme in assay buffer
- Sequence (P29597 589-875 limits assumed): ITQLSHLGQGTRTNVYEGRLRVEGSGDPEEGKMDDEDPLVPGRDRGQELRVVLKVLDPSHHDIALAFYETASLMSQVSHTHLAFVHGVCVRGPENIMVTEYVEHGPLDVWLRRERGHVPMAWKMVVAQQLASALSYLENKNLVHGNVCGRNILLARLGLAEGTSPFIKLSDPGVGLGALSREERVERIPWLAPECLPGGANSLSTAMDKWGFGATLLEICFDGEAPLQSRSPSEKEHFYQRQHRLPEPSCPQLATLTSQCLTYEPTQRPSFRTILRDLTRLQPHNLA
- TEST: Binding activity test for JH2 domain of TYK2 (Tb-antibody/tracer FRET)
- SETTINGS: JH2 domain enzyme; 60 min at 25°C, then 4°C overnight; read-out: TYK2 JH2 Binding IC50
ATTRIBUTE_MEASURED: pIC50
Note on pIC50: it is the negative log10 of concentration, concentration in mol/L.

Here's what some known entries look like.
In [3]: df
Out[3]:
                                   molecule  recorded_number
0  COC(=O)c1cnc(NC(=O)C2CC2)cc1Nc1nn(C)c2ccc(C(OC)C(F)F)c(OC)c12 (stereo not shown)             9.85
1  COC(=O)c1cnc(NC(=O)C2CC2)cc1Nc1nn(C)c2ccc(CO)c(OC)c12             9.32
2  COC(=O)c1cnc(Nc2ccc(F)cn2)cc1Nc1nn(C)c2ccc([C@H](OC)C(F)(F)F)c(OC)c12             9.72
3  [2H]C([2H])([2H])NC(=O)c1cnc(NC(=O)C2CC2)cc1Nc1cnn2ccc(C)c(OC)c12             9.86

[ask] So what's the measured pIC50 for this one? CCC(F)(F)c1cnc(NC(=O)C2CC2)cc1Nc1nn(C)c2ccc(C(O)C(F)(F)F)c(OC)c12 (single isomer, unassigned) [Example 193B]
[reply] 8.93

[ask] Entry to check: [2H]C([2H])([2H])NC(=O)c1cnc(NC(=O)C2CC2)cc1Nc1cnn2ccc(C(F)(F)F)c(OC)c12
[reply] 9.65

[ask] Entry to check: [2H]C([2H])([2H])OC(=O)c1cnc(NC(=O)C2CC2)cc1Nc1cnn2ccc([C@H](OC)C(F)(F)F)c(OC)c12
[reply] 9.55

[ask] Entry to check: [2H]C([2H])([2H])O[C@H](c1ccc2c(c(Nc3cc(NC(=O)C4CC4)ncc3C(=O)OC)nn2C)c1OC)C(F)(F)F [Example 50A]
[reply] 8.98

[ask] Entry to check: [2H]C([2H])([2H])NC(=O)c1cnc(NC(=O)C2CC2)nc1Nc1cnn2ccc([C@H](O)C(F)(F)F)c(OC)c12
[reply] 10.09

[ask] Entry to check: [2H]C([2H])([2H])NC(=O)c1cnc(NC(=O)[C@@H]2C[C@@H]2F)cc1Nc1cnn2ccc(C(F)(F)F)c(OC)c12
[reply] 9.74

[ask] Entry to check: COC(=O)c1cnc(NC(=O)C2CC2)cc1Nc1nn(C)c2ccc(C3(C#N)CC3)c(OC)c12
[reply] 9.58

[ask] Entry to check: [2H]C([2H])([2H])O[C@@H](c1ccc2c(c(Nc3cc(NC(=O)C4CC4)ncc3C(=O)OC)nn2C([2H])([2H])[2H])c1OC)C(F)(F)F [Example 53B]
[reply] 9.82

[ask] Entry to check: [2H]C([2H])([2H])NC(=O)c1nnc(NC(=O)C2CC2)cc1Nc1cnn2ccc([C@H](O)C(F)(F)F)c(OC)c12
[reply] 10.06

[ask] Entry to check: CNC(=O)c1nnc(NC(=O)C2CC2)cc1Nc1nc2ccccn2n1
[reply] 9.25

[ask] Entry to check: COCCn1nc(Nc2cc(NC(=O)C3CC3)ncc2C(=O)OC)c2c(OC)c(C(OC)C(F)(F)F)ccc21 (stereo not shown)
[reply] 9.77

[ask] Entry to check: COC(=O)c1cnc(NC(=O)C2CC2)cc1Nc1nccc(-c2cnn(C)n2)c1OC
[reply] 9.01

[ask] Entry to check: COC(=O)c1cnc(NC(=O)[C@@H]2C[C@@H]2F)cc1Nc1nn(C)c2ccc(C(OC)C(C)(F)F)c(OC)c12 (stereo partly shown)
[reply] 9.73
